biological target: Bcr-Abl1 (Homo sapiens, UniProt P00519); assay: Recombinant kinase radioassay, Abl; conditions: ATP 1 µM, at least three independent experiments, range 0.01–100 µM
Sequence (P00519 27-1130): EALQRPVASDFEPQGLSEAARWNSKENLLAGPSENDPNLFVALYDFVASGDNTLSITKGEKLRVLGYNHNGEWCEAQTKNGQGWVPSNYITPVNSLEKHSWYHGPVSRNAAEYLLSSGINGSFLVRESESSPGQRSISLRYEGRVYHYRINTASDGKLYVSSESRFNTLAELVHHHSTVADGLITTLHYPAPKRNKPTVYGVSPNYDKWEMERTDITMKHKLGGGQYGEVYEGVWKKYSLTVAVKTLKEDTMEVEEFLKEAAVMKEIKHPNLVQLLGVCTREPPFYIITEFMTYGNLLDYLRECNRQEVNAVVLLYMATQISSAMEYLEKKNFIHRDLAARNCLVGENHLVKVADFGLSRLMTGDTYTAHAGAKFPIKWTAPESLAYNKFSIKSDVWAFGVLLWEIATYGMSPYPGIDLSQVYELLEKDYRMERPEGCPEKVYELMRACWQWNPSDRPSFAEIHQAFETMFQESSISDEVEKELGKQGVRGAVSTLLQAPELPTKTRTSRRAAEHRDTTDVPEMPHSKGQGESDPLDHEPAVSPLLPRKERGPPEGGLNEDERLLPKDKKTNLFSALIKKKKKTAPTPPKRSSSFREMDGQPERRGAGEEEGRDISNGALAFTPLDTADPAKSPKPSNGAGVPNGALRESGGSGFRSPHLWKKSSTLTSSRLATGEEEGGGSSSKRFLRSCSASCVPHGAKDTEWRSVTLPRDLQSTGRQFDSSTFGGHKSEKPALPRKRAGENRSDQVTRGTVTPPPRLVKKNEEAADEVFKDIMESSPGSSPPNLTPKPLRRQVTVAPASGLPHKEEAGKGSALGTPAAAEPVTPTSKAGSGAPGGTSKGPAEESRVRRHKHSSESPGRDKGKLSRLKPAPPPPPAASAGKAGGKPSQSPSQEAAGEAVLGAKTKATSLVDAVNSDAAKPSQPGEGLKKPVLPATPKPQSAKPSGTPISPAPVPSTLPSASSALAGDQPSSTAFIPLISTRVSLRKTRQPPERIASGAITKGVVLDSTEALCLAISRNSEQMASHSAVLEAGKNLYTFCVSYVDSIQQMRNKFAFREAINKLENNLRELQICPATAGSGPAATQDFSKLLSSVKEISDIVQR
pIC50: −log10 of the molar value.
Think of 6 as a floor: if pIC50 stands on it or above, it is YES; beneath it, NO.

# record_smiles, group
records = [
    ("CCCCCCn1cnc2c(Nc3cccc(F)c3)nc(Nc3ccc(N4CCN(C)CC4)cc3)nc21", "NO"),
    ("CN1CCN(c2ccc(Nc3nc(Nc4cccc([N+](=O)[O-])c4)c4ncn(CC5CC5)c4n3)cc2)CC1", "YES"),
    ("CN1CCN(c2ccc(Nc3nc(Nc4cccc(C(F)(F)F)c4)c4ncn(CC5CC5)c4n3)cc2)CC1", "NO"),
    ("CN1CCN(c2ccc(Nc3nc(Nc4ccc(OC(F)(F)F)c([N+](=O)[O-])c4)c4ncn(CC5CC5)c4n3)cc2)CC1", "YES"),
    ("CC(C)CCn1cnc2c(Nc3ccccc3)nc(Nc3ccc(N4CCN(C)CC4)cc3)nc21", "NO"),
    ("CN1CCN(c2ccc(Nc3nc(Nc4cccc(Cl)c4)c4ncn(CC5CC5)c4n3)cc2)CC1", "YES"),
    ("CN1CCN(c2ccc(Nc3nc(Nc4ccccc4F)c4ncn(CC5CC5)c4n3)cc2)CC1", "NO"),
    ("CN1CCN(c2ccc(Nc3nc(Nc4ccccc4)c4ccn(CC5CC5)c4n3)cc2)CC1", "NO"),
    ("CCCCCCCCn1cnc2c(Nc3ccc(F)c(F)c3)nc(Nc3ccc(N4CCN(C)CC4)cc3)nc21", "NO"),
    ("CN1CCN(c2ccc(Nc3nc(Nc4cccc(OC(F)(F)F)c4)c4ncn(CC5CC5)c4n3)cc2)CC1", "YES"),
    ("CN1CCN(c2ccc(Nc3nc(Nc4ccc(Cl)c(Cl)c4)c4ncn(CC5CC5)c4n3)cc2)CC1", "YES"),
    ("CN1CCN(c2ccc(Nc3nc(Nc4ccc(OC(F)(F)F)cc4)c4ncn(CC5CC5)c4n3)cc2)CC1", "YES"),
    ("CN1CCN(c2ccc(Nc3nc(Nc4ccc(Cl)c(F)c4)c4ncn(CC5CC5)c4n3)cc2)CC1", "YES"),
    ("Cc1cccc(Nc2nc(Nc3ccc(N4CCN(C)CC4)cc3)nc3c2ncn3CC2CC2)c1", "YES"),
    ("CN1CCN(c2ccc(Nc3nc(Nc4ccc(F)c(Cl)c4)c4ncn(CC5CC5)c4n3)cc2)CC1", "YES"),
    ("CCCCCCn1cnc2c(Nc3ccccc3)nc(Nc3ccc(N4CCN(C)CC4)cc3)nc21", "NO"),
    ("CCCCCCn1cnc2c(Nc3ccc(F)c(F)c3)nc(Nc3ccc(N4CCN(C)CC4)cc3)nc21", "NO"),
    ("CC(C)CCn1cnc2c(Nc3cccc(F)c3)nc(Nc3ccc(N4CCN(C)CC4)cc3)nc21", "NO"),
    ("CCCCCCCCn1cnc2c(Nc3ccccc3)nc(Nc3ccc(N4CCN(C)CC4)cc3)nc21", "NO"),
    ("CCCCCn1cnc2c(Nc3cccc(F)c3)nc(Nc3ccc(N4CCN(C)CC4)cc3)nc21", "YES"),
    ("CN1CCN(c2ccc(Nc3nc(Nc4cccc(C#N)c4)c4ncn(CC5CC5)c4n3)cc2)CC1", "YES"),
    ("CCOC(=O)c1ccc(Nc2nc(Nc3ccc(N4CCN(C)CC4)cc3)nc3c2ncn3CC2CC2)cc1", "YES"),
    ("CC(C)CCn1cnc2c(Nc3ccc(F)c(F)c3)nc(Nc3ccc(N4CCN(C)CC4)cc3)nc21", "NO"),
    ("CCCCCCCCn1cnc2c(Nc3cccc(F)c3)nc(Nc3ccc(N4CCN(C)CC4)cc3)nc21", "NO"),
    ("CN1CCN(c2ccc(Nc3nc(Nc4ccc([N+](=O)[O-])cc4)c4ncn(CC5CC5)c4n3)cc2)CC1", "YES"),
    ("CN1CCN(c2ccc(Nc3nc(Nc4ccc(C#N)cc4)c4ncn(CC5CC5)c4n3)cc2)CC1", "YES"),
]
